# maps each entry to its LC retention time
- protocol-description: RP, Waters ACQUITY UPLC BEH C18, 50 × 2.1 mm, 1.7 µm, 40 °C, 0.6 mL/min, estimated dead time 0.18 min; A: water + 0.1% formic acid, pH 3; B: acetonitrile + 0.1% formic acid, pH 3; gradient (min/%B) 0/5 7/100 8/100
- experimental-context: stereoisomer not certain
measured-attribute: LC retention time

>>> result("CC(C)(O)/C=C/C(=O)[C@](C)(O)[C@H]1[C@H](O)C[C@@]2(C)C3CC=C4C(C=C(O)C(=O)C4(C)C)[C@]3(C)C(=O)C[C@]12C (some centres not stated)")
"3 min"
>>> result("C=C1CCC(C(C)C)=CC2C1CCC2(C)O (configuration not stated)")
"3.02 min"
>>> result("CCC(C)C(=O)C1=C(O)C2(CC=C(C)C)CC(CCC(C)(C)O)C(C)(C)C(C(CC(=O)O)c3ccccc3)=C2OC1=O (configuration not stated)")
"5 min"
>>> result("CCC(C)C(=O)C1=C(O)C2(CC=C(C)C)CC(CCC(C)(C)NC(C)=O)C(C)(C)C(C(CC(=O)O)c3ccccc3)=C2OC1=O (configuration not stated)")
"4.87 min"
>>> result("CCCCCCCCCCCCO[C@@H]1O[C@@H](C)[C@H](O[C@@H]2O[C@@H](C)[C@H](OC(C)=O)[C@@H](O[C@@H]3O[C@@H](C)[C@H](OC(C)=O)[C@@H](O[C@@H]4O[C@@H](C)[C@H](OC(C)=O)[C@@H](OC(C)=O)[C@H]4O)[C@H]3OC(C)=O)[C@H]2O)[C@@H](O)[C@H]1O")
"6.09 min"
>>> result("CC(C)=CCC1CC2(CC=C(C)C)C(O)=C(C(=O)C(C)C)C(=O)OC2=C(C(CC(=O)O)c2ccccc2)C1(C)C (configuration not stated)")
"6.13 min"
>>> result("COc1cc2c3c(c1O)Oc1ccc(cc1)CC1c4c(cc(OC)c(O)c4Oc4ccc(cc4)CC3N(C)CC2)CCN1C (configuration not stated)")
"1.44 min"

----------
- protocol-description: RP, Waters ACQUITY UPLC BEH C18, 50 × 2.1 mm, 1.7 µm, 40 °C, 0.6 mL/min, estimated dead time 0.18 min; A: water + 0.1% formic acid, pH 3; B: acetonitrile + 0.1% formic acid, pH 3; gradient (min/%B) 0/5 7/100 8/100
- experimental-context: stereoisomer not certain
# maps each entry to its LC retention time
measured-attribute: LC retention time (min)

>>> numeric_value("O=C1c2ccc(O)cc2OC(c2ccc(O)cc2)C1C1C(=O)c2ccc(O)cc2OC1c1ccc(O)cc1 (stereo not drawn)")
2.67
>>> numeric_value("CC1CC(C2CCC3N2CCCCC32CC(C)C(=O)O2)OC1=O (stereo not drawn)")
1.07
>>> numeric_value("CC(=O)OCC1=C2C(OC(=O)/C=C(/C)COC(C)=O)CC(C)C(=O)CC(=O)C3(C)OC3C2OC1=O (stereo not drawn)")
3.5

----------
# maps each entry to its LC retention time
- protocol-description: RP, Waters ACQUITY UPLC BEH C18, 50 × 2.1 mm, 1.7 µm, 40 °C, 0.6 mL/min, estimated dead time 0.18 min; A: water + 0.1% formic acid, pH 3; B: acetonitrile + 0.1% formic acid, pH 3; gradient (min/%B) 0/5 7/100 8/100
- experimental-context: stereoisomer not certain
measured-attribute: LC retention time (min)

>>> numeric_value("CC1(C)CCC2(C(=O)O)CC=C3C(C)(CCC4C3(C)CCC3C(C)(C)C(OC(=O)c5ccc(O)cc5)C(OC(=O)c5ccc(O)cc5)CC43C)C2C1 (stereo not given)")
5.54
>>> numeric_value("CC(C)=CCCC(C)=CCC1=Cc2c(O)c3c(c(CC=C(C)C)c2OC1O)OC12C(=CC4CC1C(C)(C)OC2(CC=C(C)C(=O)O)C4=O)C3=O (stereo not given)")
6.07
>>> numeric_value("CC[C@H]1C[C@@H]2CN3CCc4c([nH]c5ccccc45)[C@](C(=O)OC)(C2)[C@H]13")
2.05
>>> numeric_value("CCCC(CC(=O)O)C1=C2OC(=O)C(C(=O)CC(C)C)=C(O)C2(CC=C(C)C)CC(CC=C(C)C)C1(C)C (stereo not given)")
6.51
>>> numeric_value("O=C1c2c(O)cc(O)c(C3C(=O)c4c(O)cc(O)cc4OC3c3ccc(O)cc3)c2OC(c2ccc(O)c(O)c2)C1O (stereo not given)")
0.319
